Data origin, for the record: patent US20220144848A1

- Test system: human plasma kallikrein (Homo sapiens)
- Sequence (P03952 391-638 limits assumed): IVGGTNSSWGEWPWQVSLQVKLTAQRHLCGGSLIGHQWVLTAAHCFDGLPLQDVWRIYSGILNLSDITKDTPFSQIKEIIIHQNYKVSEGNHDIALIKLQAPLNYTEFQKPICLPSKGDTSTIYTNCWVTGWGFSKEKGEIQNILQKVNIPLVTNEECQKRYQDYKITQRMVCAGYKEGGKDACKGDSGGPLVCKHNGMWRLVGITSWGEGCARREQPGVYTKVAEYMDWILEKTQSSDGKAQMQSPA
- Sequence (P03952 20-390 partner limits assumed): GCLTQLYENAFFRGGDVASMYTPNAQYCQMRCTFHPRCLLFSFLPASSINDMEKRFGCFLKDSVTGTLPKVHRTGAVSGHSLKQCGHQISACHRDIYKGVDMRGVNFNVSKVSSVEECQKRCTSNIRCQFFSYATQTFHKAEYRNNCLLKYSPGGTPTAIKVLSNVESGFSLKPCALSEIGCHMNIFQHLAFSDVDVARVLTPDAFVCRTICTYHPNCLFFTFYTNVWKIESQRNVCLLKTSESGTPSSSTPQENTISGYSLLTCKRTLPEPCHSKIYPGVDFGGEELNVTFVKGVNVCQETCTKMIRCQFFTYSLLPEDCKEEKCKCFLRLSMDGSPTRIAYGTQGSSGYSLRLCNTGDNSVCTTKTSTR
- Measurement protocol: Determination of the plasma kallikrein activity (fluorogenic peptide substrate H-Pro-Phe-Arg-AMC)
- Run parameters: plasma kallikrein from Kordia, 15 min preincubation, 30 min at 22° C., fluorescence; some as mean values from multiple determinations
pIC50: −log10 of the molar value.

Molecule | Test system | pIC50
COCC[C@@H](C(=O)Nc1ccc(C(N)=O)cc1)n1cc2c(cc1=O)-c1cc(Cl)ccc1C[C@@H](C(F)(F)F)OC2 (single isomer, unassigned) [Example 63] | human plasma kallikrein (Homo sapiens) | 6.96
NC(=O)c1ccc(NC(=O)[C@H](C[C@@H]2CCCCO2)n2cc3c(cc2=O)-c2cc(Cl)ccc2C[C@@H](C(F)(F)F)OC3)cc1 (single isomer, unassigned) [Example 55] | human plasma kallikrein (Homo sapiens) | 7.04
CC(C)[C@@H]1Cc2ccc(Cl)cc2-c2cc(=O)n([C@@H](C[C@@H]3COCCO3)C(=O)Nc3ccc4nn(C)nc4c3)cc2CO1 (single isomer, unassigned) [Example 45] | human plasma kallikrein (Homo sapiens) | 6.18
